Test system: HEK-293T
Assay: Incucyte cell viability with HEK293T; also: unitless GR value; below 1 slowed growth and below 0 cell loss
Format: toxicity, cell-based
Settings: human, 24 h, 10 µM, compound concentration 10 uM, replicate number 1
readout.kind: Growth Rate
Reply with the value as a number alone.

Give the reported Growth Rate for this compound. "CC(C)C[C@@H](C=O)NC(=O)[C@@H](NS(=O)(=O)c1ccc(F)cc1)C(C)C"
0.64

***
Provide measured Growth Rate value, entry: "NC(=O)c1cccc(NC(=O)CCC(=O)NCCc2cn(CCNS(=O)(=O)c3cccc(C(=O)O)c3)nn2)c1"
0.69

Supply reported Growth Rate belonging to this compound: "Cc1ncc(Cl)cc1NCc1ccc(C(=O)N[C@@H](CC2CCCC2)C(=O)NC2CC2)s1"
0.59

====

System: Fibroblast
Assay: Incucyte cell viability with human fibroblast; also: unitless GR value; below 1 slowed growth and below 0 cell loss
Type: toxicity, cell-based
Settings: 24 h, 10 µM, compound concentration 10 uM, replicate number 2
Peptide text beside a SMILES is read from it. * marks the point of attachment. CH2Cl = ClC*
Rule: rule met for Growth Rate not less than 0.4, rule not met for anything less.

Determine whether measured Growth Rate meets or exceeds 0.4 for "C[C@@H]1CN(c2nccc(Nc3ccc4c(c3)n(CCC(C)(C)O)c(=O)n4C)n2)C[C@H](C)C1(F)F"
rule met

Given "O=C(c1ccc2[nH]ccc2c1)N1CCN(S(=O)(=O)c2ccc3[nH]c(=O)oc3c2)CC1" , state whether its Growth Rate is at least 0.4.
rule met

Exam item: decide whether the reported Growth Rate for CC(=O)N[C@@H](CC(C)C)C(=O)N[C@@H](CCC(=O)O)C(=O)N[C@@H](Cc1cnc[nH]1)C(=O)N[C@@H](CC(=O)O)C(=O)CCl.O=C(O)C(F)(F)F (Ac-LEHD-CH2Cl) is at least 0.4.
rule met

Please indicate if the recorded Growth Rate for "N#Cc1ccc([C@H]2CCCC[C@H]2O)cc1C(F)(F)F" meets or exceeds 0.4.
rule met

Reported Growth Rate at or above 0.4? CCCC(NC(=O)C(CC(C)C)NC(=O)OCc1ccccc1)C(=O)C(=O)NCc1ccccn1 (racemic)
rule met

***
API: above_or_equal(metric=Growth Rate, cutoff=0.4) for item "Cc1nc(F)ccc1-c1cc(Cn2ccn(C)c2=N)cc(C(=O)NCc2ccc(Cl)c(Cl)c2)c1.O=C(O)C(F)(F)F"
rule not met

Quick check, Growth Rate >= 0.4? O=C(CCCCCCNC(=O)c1cnc(N(c2ccccc2)c2ccccc2Cl)nc1)NO [CITARINOSTAT]
rule not met

Given "O=C(NCC1(c2nc(-c3ccccc3)cs2)CCOCC1)c1cccc(-c2noc(C(F)(F)F)n2)c1" , state whether its Growth Rate is at least 0.4.
rule met

Please indicate if the recorded Growth Rate for "COc1cc2c(NCC3CCN(C)CC3)cc(-c3ccc(C)o3)nc2cc1OCCCN1CCCC1" meets or exceeds 0.4.
rule not met

Does Growth Rate meet or surpass 0.4 for Nc1ccccc1NC(=O)c1ccc(CNC(=O)OCc2cccnc2)cc1 [ENTINOSTAT] ?
rule met

Please tell me: is the compound "COCCOCCn1nc2c(c1C)-c1c(Cl)ccc3c1c(C)c(C(=O)O)n3CCCOc1cc(cc3c(F)c(Cl)ccc13)CCc1cc(nn1C)CSC2" at or over 0.4 in terms of Growth Rate?
rule not met

====

System: U2OS
Experiment: Incucyte cell viability with U2OS; also: unitless GR value; below 1 slowed growth and below 0 cell loss
Assay type: toxicity, cell-based
Settings: human, 24 h, 10 µM, compound concentration 10 uM, replicate number 1
Listed below: Growth Rate values for each entry.

Example entries begin here.
Please list Growth Rate recorded for the molecule "Nc1ccccc1NC(=O)CCCCCC(=O)Nc1ccccc1"
0.46

Please list Growth Rate recorded for the molecule "COc1cccc(OC)c1S(=O)(=O)Nc1noc2cc(Cn3cccn3)cc(OC)c12"
0.39

Provide Growth Rate value for the following molecule: "COc1cc2c(Nc3ccc(Br)cc3F)ncnc2cc1OCC1CCN(C)CC1"
-0.56

Please give measured Growth Rate of the following entry: "CCN(CC)S(=O)(=O)c1cc(Nc2nccc(-c3ccnc(-c4ccc(NC(=O)NC)cc4)c3)n2)ccc1Cl"
-0.05

For the molecule "COc1ccc2nc3[nH]nc(C)c3c(NCCOCCO)c2c1" , give its measured Growth Rate value.
0.89

Identify the reported Growth Rate for the following entry. "O=C(Nc1c[nH]nc1C(=O)NC1CCNCC1)c1cc(F)cc(F)c1"
-0.13

Others:
Complete the entry with Growth Rate for "Cc1cc(C)c(CNC(=O)c2cc(-c3ccc(N4CCN(C)CC4)nc3)cc3c2c(C)cn3C(C)C)c(=O)[nH]1"
0.61

Respond only with Growth Rate recorded for "C[C@H](Nc1cc(Cl)nc2c1cnn2[C@@H]1O[C@H](COP(=O)(O)CP(=O)(O)O)[C@@H](O)[C@H]1O)c1ccccc1F"
1

Please report Growth Rate for the following molecule: "O=C(NCC1CCOCC1)c1n[nH]cc1NC(=O)c1c(F)cccc1F"
0.03

Return reported Growth Rate. Input molecule: "CC(C)c1cnc(CSc2cnc(NC(=O)C3CCNCC3)s2)o1"
-0.6

State its Growth Rate for this molecule: "CC(=O)N1CCc2c(c(N3CCCc4cc(-c5cnn(C)c5)c(C(F)F)cc43)nn2C2CCOCC2)C1"
1

Tell me Growth Rate reported for O=C(NO)C(c1ccc(-c2ncc(C(F)(F)F)cn2)cc1)c1ccccc1F (configuration not stated)
0.6

Look up and report measured Growth Rate for this entry: CCC(NC(=O)C(CC(C)C)NC(=O)OCc1ccccc1)C(=O)C(=O)NCCCN1CCOCC1.O=C(O)C(F)(F)F (configuration not stated)
1

For the molecule "Cn1c(=O)c2c(nc(N3CCNCC3)n2Cc2nnc(-c3ccc(Cl)c(Cl)c3)o2)n(C)c1=O" , give its reported Growth Rate.
1

Give the reported Growth Rate for this molecule. "Cc1ccc(F)c2cc(C(=O)N[C@@H]3CCC[C@H](N4CC[C@H](N(C)S(C)(=O)=O)C4)C3)[nH]c12"
1

Hello, please tell me recorded Growth Rate for this one: "Cc1nn(CC(F)(F)F)cc1Nc1ncc(Br)c(NCc2ccc(S(N)(=O)=O)cc2)n1"
1

Look up and state reported Growth Rate for "O=C(NCCCn1ccnc1)c1cc2nc(-c3ccccc3)cc(-c3ccccc3)n2n1"
0.13

====

Documented Growth Rate across a set of compounds
System: HEK-293T
Test: Incucyte cell viability with HEK293T; also: unitless GR value; below 1 slowed growth and below 0 cell loss
Format: toxicity, cell-based
Conditions: human, 24 h, 10 µM, compound concentration 10 uM, replicate number 1
// no unit string in output, number only

Consider the reported Growth Rate for these compounds:
Answer with the recorded Growth Rate for the compound listed here: "CCCOC(=O)N1CCN(C(=O)c2ccc3c(Cl)cc(-c4ccc(C5(N)CC5)cc4)nc3c2)C[C@H]1C"
0.01

Could you please provide reported Growth Rate for "Cc1ccc(NC2=CC(=O)c3sc(C)nc3C2=O)cc1" ? Thanks!
-0.37

Give reported Growth Rate value for "O=C(C1CC1)N1CC[C@@H](Cc2n[nH]c(=O)n2-c2ccc(-c3ccc4occc4c3)cc2)C1"
0.73

More entries:
Provide only the value of recorded Growth Rate for CC(C)(F)C[C@H](N[C@@H](c1ccc(-c2ccc(S(C)(=O)=O)cc2)cc1)C(F)(F)F)C(=O)NC1(C#N)CC1 [ODANACATIB]
0.9

====

Test system: U2OS
Assay: Incucyte cell viability with U2OS; also: unitless GR value; below 1 slowed growth and below 0 cell loss
Type: toxicity, cell-based
Conditions: human, 24 h, 10 µM, compound concentration 10 uM, replicate number 2
readout.kind: Growth Rate
Reply: number alone, nothing else.

Specify measured Growth Rate for "CNC(=O)Cn1cc(-c2ccc3c(c2)[C@H](F)C[C@]32NC(=O)N(CC(=O)N(Cc3ccc(F)cc3)[C@@H](C)C(F)(F)F)C2=O)cn1" .
0.63

Tell us which Growth Rate value is on record for "Nc1ccc(-c2cccs2)cc1NC(=O)c1ccc2nc(N3CCNCC3)ccc2c1"
0.63

Others:
Tell me Growth Rate reported for CCNC(=O)c1noc(-c2cc(C(C)C)c(O)cc2O)c1-c1ccc(CN2CCOCC2)cc1 [LUMINESPIB]
0

Return Growth Rate (reported value) for this compound: Nc1cc(F)ccc1NC(=O)c1ccc(CNC(=O)/C=C/c2cccnc2)cc1 [TUCIDINOSTAT]
0.82

====

Test system: U2OS
Assay: Incucyte cell viability with U2OS; also: unitless GR value; below 1 slowed growth and below 0 cell loss
Format: toxicity, cell-based
Settings: human, 24 h, 10 µM, compound concentration 10 uM, replicate number 2
Square brackets hold non-standard residues; d marks the D form. Peptide text beside a SMILES is read from it. * marks the point of attachment. Nle = CCCC[C@H](N)C(=O)O; Cbz = O=C(OCc1ccccc1)*; CH2F = FC*
readout.kind: Growth Rate
Just the number, please, no unit attached.

Answered examples (10):
Note down Growth Rate recorded for "O=C1C(=O)N(Cc2ccccc2)c2ccc(S(=O)(=O)N3CCC[C@H]3COc3ccc(C(F)(F)F)cc3)cc21"
-0.25

Indicate its recorded Growth Rate; the compound in question is CC/C(=C(/c1ccc(/C=C/C(=O)O)cc1)c1ccc2[nH]ncc2c1)c1ccc(F)cc1Cl [BRILANESTRANT]
0.77

Recall and state the measured Growth Rate for "CCC(CC)(NC(=O)C(C)C)C(=O)N[C@@H](CCCNC(=N)N)C(=O)NC1(C(=O)NC(c2ccc(F)cc2)c2ccc(F)cc2)CCCC1" .
0.97

Give the measured Growth Rate for "O=C([O-])CCNc1cc(N2CCc3ccccc3CC2)nc(-c2cccnc2)n1.[Na+]"
1

Identify Growth Rate associated with the compound COC(=O)CC[C@H](NC(=O)[C@H](Cc1c[nH]c2ccccc12)NC(=O)OCc1ccccc1)C(=O)N[C@@H](Cc1cnc[nH]1)C(=O)N[C@@H](CC(=O)OC)C(=O)CF (Cbz-WE(OMe)HD(OMe)-CH2F)
0.99

Provide measured Growth Rate value, entry: CCN(c1cc(-c2ccc(CN3CCOCC3)cc2)cc(C(=O)NCc2c(C)cc(C)[nH]c2=O)c1C)C1CCOCC1 [TAZEMETOSTAT]
0.87

Read the entry CCCC[C@@H](C=O)NC(=O)[C@H](CC(C)C)NC(=O)[C@H](CC(C)C)NC(C)=O (Ac-Leu-Leu-[Nle]-aldehyde) and write its reported Growth Rate.
0.62

Supply reported Growth Rate belonging to this compound: "O=C(NO)c1cnc(NC2(c3ccccc3)CC2)nc1"
-0.13

Return Growth Rate (reported value) for this compound: CC(=O)O[C@]1(C(C)=O)CC[C@H]2[C@@H]3CCC4=CC(=O)CCC4=C3[C@@H](c3ccc(N(C)C)cc3)C[C@@]21C [ULIPRISTAL ACETATE]
0.78

Give the reported Growth Rate for this compound. "CCn1c(=O)c(C)cn(Cc2nnc(-c3ccc(F)c(OC)c3F)s2)c1=O"
1

Others:
Provide measured Growth Rate value, entry: Nc1nc2cc(CC[C@H]3C[C@@H](n4ccc5c(N)ncnc54)[C@H](O)[C@@H]3O)ccc2cc1Br [ONAMETOSTAT]
1

Answer with the recorded Growth Rate of "CC(C)(O)c1ccc(N2Cc3c(ccnc3-c3ccc(F)cc3OCC(F)(F)F)C2=O)cc1" only.
1

State its Growth Rate for this compound: "CC1=NN(c2ccc(C(=O)O)cc2)C(=O)/C1=C/c1ccc(-c2cc(C)c(C)cc2[N+](=O)[O-])o1"
1

Given "CCC[C@H]1CNCc2c1[nH]c(=O)c(C#N)c2N1CCC2(CC1)CC2.Cl" , respond with its Growth Rate.
1

Provide Growth Rate value for the following compound: CCCC1O[C@@H]2C[C@H]3[C@@H]4CCC5=CC(=O)C=C[C@]5(C)[C@H]4[C@@H](O)C[C@]3(C)[C@]2(C(=O)CO)O1 (stereo partly specified) [BUDESONIDE]
0.58

Output measured Growth Rate for this item: Nc1ccccc1NC(=O)c1ccc(CNC(=O)OCc2cccnc2)cc1 [ENTINOSTAT]
0.57

Tell me measured Growth Rate for CNCCN(C)Cc1cn[nH]c1-c1ccc(OC2CC(OCCC3CCOCC3)C2)cc1 (stereo unspecified) please.
1

Retrieve Growth Rate measured for "CN1CCN(c2cc(C(=O)Nc3ncc(SCc4cccc(C(F)(F)F)c4)s3)ccn2)CC1" and print it.
0.48
